The compounds below each have a reported IC50 tested on RAC-alpha serine/threonine-protein kinase (Homo sapiens, UniProt P31749); the values come from various publications.
EXPERIMENTAL_ENDPOINT: IC50 (nM)

Look over these answered cases.
{"columns": ["COMPOUND", "UNIT_ANNOTATION", "IC50"],
 "data": [
  ["Cn1ncc(Cl)c1-c1ccc(C(=O)N[C@@H]2CNCC[C@H]2c2cccc(F)c2)s1", "nM", 1],
  ["Cc1cc(C(=O)N[C@@H]2CNC(CCN3CCCCC3)C[C@H]2c2ccc(F)c(F)c2)ccc1-c1c(Cl)cnn1C (stereo partly shown)", "nM", 8],
  ["Cn1ncc(Cl)c1-c1cc(C(=O)N[C@@H]2CNC(CC(O)CO)C[C@H]2c2ccc(F)c(F)c2)oc1Cl (stereo partly shown)", "nM", 0.5],
  ["Cc1[nH]c(C(=O)N[C@H]2CNCC[C@@H]2c2ccncc2)cc1-c1c(Br)cnn1C (racemic)", "nM", 32],
  ["Cn1ncc(-c2ccccc2)c1-c1ccc(C(=O)N[C@@H]2CNCC[C@H]2c2ccc(F)c(F)c2)s1", "nM", 5],
  ["CCOc1cc2ncc3c(N)nc(-c4cccnc4)cc3c2cc1OCC", "nM", 200],
  ["CCc1cnn2c1-c1cc(C(=O)N[C@H](CN)Cc3cccc(F)c3)sc1CCC2", "nM", 5.22],
  ["Cc1nc(C(=O)N[C@H]2CNCC[C@@H]2c2ccc(F)c(F)c2)ncc1-c1c(Cl)cnn1C (racemic)", "nM", 72]
]}

[I] NC1(c2ccc(-c3nc4n(c3-c3ccncc3)COc3ccccc3-4)cc2)CCC1
[II] CC1C(=O)Nc2ncnc(N3CCC(c4nc(-c5cccnc5F)ccc4NCCN4CCCC4)CC3)c21 (stereo not shown)
[III] CC(C)NC[C@@H](C(=O)N1C2CCC1CN(c1ncnc3[nH]c(=O)c(=O)n(C)c13)C2)c1ccc(Cl)cc1
[IV] NC(=O)c1cccc2c(N[C@H](CN3CCC3)c3cccc(F)c3)ncnc12
Please list the entries, largest IC50 first. Returns: the labels arranged in the requested order.
III, I, IV, II
(III: 77 nM, I: 51 nM, IV: 22 nM, II: 0.6 nM)

* * *

The compounds below each have a reported pIC50 tested on RAC-alpha serine/threonine-protein kinase (Homo sapiens, UniProt P31749); the values come from various publications.
pIC50: −log10 of the molar value.
EXPERIMENTAL_ENDPOINT: pIC50

{"columns": ["COMPOUND", "pIC50"],
 "data": [
  ["CNC(=O)CC1C[C@@H](c2ccc(F)c(F)c2)[C@H](NC(=O)c2cc(-c3c(Cl)cnn3C)cs2)CN1 (some centres unmarked)", 8.52]
]}

[P] COc1cc2c(cc1OCCN1CCOCC1)ncc1c(N)nc(-n3ccnc3)cc12
[Q] Cc1cnn2c1-c1cc(C(=O)N[C@H](CN)Cc3cccc(F)c3)sc1CCC2
[R] NC(=O)c1cccc2c(N[C@H](CN3CCC3)c3cccc(Cl)c3)ncnc12
Please list the entries, largest pIC50 first. Returns: the labels arranged in the requested order.
Q, R, P
(Q: 8.66, R: 8.00, P: 7.15)

* * *

The compounds below each have a reported pIC50 tested on RAC-alpha serine/threonine-protein kinase (Homo sapiens); the values come from various publications.
pIC50: −log10 of the molar value.
EXPERIMENTAL_ENDPOINT: pIC50

Look over these answered cases.
{"columns": ["COMPOUND", "MEASURED_TARGET", "RESULT_NUMBER"],
 "data": [
  ["COc1cc2c(cc1OCCCN1CCCC1)ncc1c(N)nc(-c3cccnc3C)cc12", "RAC-alpha serine/threonine-protein kinase (Homo sapiens)", 5.40],
  ["Cn1ncc(C(=O)O)c1-c1ccc(C(=O)N[C@@H]2CNCC[C@H]2c2cccc(F)c2)s1", "RAC-alpha serine/threonine-protein kinase (Homo sapiens)", 8.70]
]}

[P] N[C@]1(c2ccc(-c3nc4n(c3-c3ccccc3)COc3cccnc3-4)cc2)C[C@](O)(C2CC2)C1
[Q] CC(C)NC[C@@H](C(=O)N1CCN(c2ncnc3c2C(C)CC(=O)N3)CC1)c1ccc(Cl)cc1 (some centres unmarked)
Hey, between P and Q which has a smaller measured pIC50? Label of pick, please.
P

[a] NC(=O)CCC(=O)Nc1cccc(Nc2ncnc3[nH]cc(C(=O)c4ccccc4)c23)c1
[b] NC[C@H](Cc1cc(F)ccc1F)NC(=O)c1cc2c(s1)CCCn1ncc(Br)c1-2
Given the listed records, identify the one among a and b with higher pIC50. Label of pick, please.
b
